// reported IC90 for each item listed
- System: M. tuberculosis H37Rv growth inhibition, 7H9 media
- procedure summary: M. tuberculosis growth inhibition, HTS (AID 449762);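 note: bacterial growth assessed after seven days of incubation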
- setup conditions: measured here: IC90 growth inhibition
Results filed as inconclusive are left out.
Express it in µM; write the number only.

Exercise: Name the recorded IC90 for O=[N+]([O-])c1ccc(S(=O)(=O)c2ccccc2)nc1 .
Key: 2.08

Exercise: Name the recorded IC90 for ClCc1nc2ccccc2c2ccccc12 .
Key: 17.2

Exercise: Name the recorded IC90 for CN(C)CCOc1nc(-c2ccccc2)nc2c1oc1ccccc12 .
Key: 16.3

Exercise: Name the recorded IC90 for CCOc1ccc(-c2[nH]ncc2-c2ccc(Cl)cc2)c(O)c1 .
Key: 66.5

====

- System: M. tuberculosis H37Rv growth inhibition, 7H9 media
- procedure summary: M. tuberculosis growth inhibition, HTS (AID 449762);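 note: bacterial growth assessed after seven days of incubation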
- setup conditions: measured here: IC90 growth inhibition
Inconclusive results are not listed.
quantity: IC90

COc1ccc(Cc2nc3ccc(C(=O)NCCCSC)cc3o2)cc1OC: > 100 µM

Exercise: What is its IC90 for M. tuberculosis H37Rv growth inhibition, 7H9 media? Entry: CCCCn1nc(C(=O)Nc2ccccc2N2CCCC2)c2ccccc2c1=O
Key: > 100 µM

Exercise: What is its IC90 for M. tuberculosis H37Rv growth inhibition, 7H9 media? Entry: C[C@@H]1CCCCCCCCC(=O)OCCN[C@H](C)CCCCCCCCC(=O)OCCN[C@H](C)CCCCCCCCC(=O)OCCN1
Key: 29.4 µM

Exercise: What is its IC90 for M. tuberculosis H37Rv growth inhibition, 7H9 media? Entry: CCCCCn1c(=O)c2ccccc2n2c(CCl)nnc12
Key: 2.21 µM

Exercise: What is its IC90 for M. tuberculosis H37Rv growth inhibition, 7H9 media? Entry: c1cc(Nc2cccc3nccnc23)c2nccnc2c1
Key: 23.2 µM
